The measurements presented in this section are drawn from ChEMBL document CHEMBL5038586.

- Test system: HeLa
- Method description: Cytotoxicity against human HeLa cells assessed as cell death incubated for 20 hrs measured by DNS assay
- Type: functional
Recorded endpoint: CC50 (µM)
Answers are plain numbers, in µM.

// worked examples, CC50 included
{"Compound structure": "O=C(COc1ccc2cc(/C=C3/SC(=O)NC3=O)ccc2c1)Nc1c(F)cc(F)cc1Br", "Test system": "HeLa", "Unit string": "µM", "CC50": 10.4}
{"Compound structure": "O=C(COc1ccc2cc(/C=C3/SC(=O)NC3=O)ccc2c1)Nc1ccccc1Oc1ccccc1", "Test system": "HeLa", "Unit string": "µM", "CC50": 10.2}

Consider the following items and state reported CC50 for each.
1. O=C(COc1ccc2cc(/C=C3/SC(=O)NC3=O)ccc2c1)Nc1ccc(Br)cc1
2. O=C(CCCCCCC(=O)Nc1ccccc1)NO
3. Cc1cc(Br)ccc1NC(=O)COc1ccc2cc(/C=C3/SC(=O)NC3=O)ccc2c1
4. Cc1ccc(NC(=O)COc2ccc3cc(/C=C4/SC(=O)NC4=O)ccc3c2)cc1
5. COc1cccc(NC(=O)COc2ccc3cc(/C=C4/SC(=O)NC4=O)ccc3c2)c1

Output line:
1: 10.1; 2: 2.8; 3: 9.9; 4: 10.3; 5: 10.4

###

- Tested on: MDA-MB-231
- Method description: Cytotoxicity against human MDA-MB-231 cells assessed as cell death incubated at 10 uM for 20 hrs measured by DNS assay
- Assay type: functional
Recorded endpoint: Activity (%)
Answers are plain numbers, in %.

{"Compound structure": "O=C(COc1ccc2cc(/C=C3/SC(=O)NC3=O)ccc2c1)Nc1cccc(Cl)c1", "Test system": "MDA-MB-231", "Activity [%]": 2.84}

We next turn to a different molecule, shown below.
Input line: Record request: Activity value, item O=C(COc1ccc2cc(/C=C3/SC(=O)NC3=O)ccc2c1)Nc1cccc(C(F)(F)F)c1
Output line: 5.96

###

What IC50 was measured for each of the following?
- Test system: Histone deacetylase 8 (Homo sapiens)
- Method description: Inhibition of recombinant human HDAC8 using Boc-Lys (trifluoroacetyl)-AMC as substrate preincubated for 1 hr followed by substrate addition and measured after 1 hr by micro plate reader analysis

{"Compound structure": "Cc1ccc(NC(=O)COc2ccc3cc(/C=C4/SC(=O)NC4=O)ccc3c2)cc1", "IC50": "9 µM"}
{"Compound structure": "O=C(COc1ccc2cc(/C=C3/SC(=O)NC3=O)ccc2c1)Nc1cc(Cl)cc(C(F)(F)F)c1", "IC50": "> 50 µM"}
{"Compound structure": "O=C(COc1ccc2cc(/C=C3/SC(=O)NC3=O)ccc2c1)Nc1cccc(C(F)(F)F)c1", "IC50": "> 50 µM"}
{"Compound structure": "COc1ccc(NC(=O)COc2ccc3cc(/C=C4/SC(=O)NC4=O)ccc3c2)cc1", "IC50": "> 50 µM"}
{"Compound structure": "O=C(COc1ccc2cc(/C=C3/SC(=O)NC3=O)ccc2c1)Nc1ccc(Br)c(Br)c1", "IC50": "> 50 µM"}
{"Compound structure": "COc1cccc(NC(=O)COc2ccc3cc(/C=C4/SC(=O)NC4=O)ccc3c2)c1", "IC50": "7.6 µM"}
{"Compound structure": "O=C(COc1ccc2cc(/C=C3/SC(=O)NC3=O)ccc2c1)Nc1cccc(F)n1", "IC50": "7.2 µM"}
{"Compound structure": "O=C(COc1ccc2cc(/C=C3/SC(=O)NC3=O)ccc2c1)Nc1ccc(Br)cc1F", "IC50": "> 50 µM"}
{"Compound structure": "O=C(COc1ccc2cc(/C=C3/SC(=O)NC3=O)ccc2c1)Nc1ccccn1", "IC50": "> 50 µM"}
{"Compound structure": "O=C(CN1C(=O)S/C(=C/c2ccccn2)C1=O)Nc1nc2ccccc2s1", "IC50": "9.3 µM"}

Give measured IC50 for every item shown.
1. O=C(COc1ccc2ccccc2c1/C=C1\SC(=O)NC1=O)Nc1ccc([N+](=O)[O-])cc1
2. Cc1cc(NC(=O)COc2ccc3cc(/C=C4/SC(=O)NC4=O)ccc3c2)no1
3. O=C(COc1ccc2cc(/C=C3/SC(=O)NC3=O)ccc2c1)Nc1ccccc1
4. O=C(COc1ccc2cc(/C=C3/SC(=O)NC3=O)ccc2c1)Nc1ccc(F)cc1
5. Cc1cc(Br)ccc1NC(=O)COc1ccc2cc(/C=C3/SC(=O)NC3=O)ccc2c1
6. Cc1ccc(NC(=O)COc2ccc3cc(/C=C4/SC(=O)NC4=O)ccc3c2)cc1Cl

Output line:
1: 2.3 µM; 2: > 50 µM; 3: 4.5 µM; 4: 6.6 µM; 5: 7.4 µM; 6: > 50 µM

###

- Test system: Histone deacetylase 4 (Homo sapiens, UniProt P56524)
- Sequence (P56524 whole entry): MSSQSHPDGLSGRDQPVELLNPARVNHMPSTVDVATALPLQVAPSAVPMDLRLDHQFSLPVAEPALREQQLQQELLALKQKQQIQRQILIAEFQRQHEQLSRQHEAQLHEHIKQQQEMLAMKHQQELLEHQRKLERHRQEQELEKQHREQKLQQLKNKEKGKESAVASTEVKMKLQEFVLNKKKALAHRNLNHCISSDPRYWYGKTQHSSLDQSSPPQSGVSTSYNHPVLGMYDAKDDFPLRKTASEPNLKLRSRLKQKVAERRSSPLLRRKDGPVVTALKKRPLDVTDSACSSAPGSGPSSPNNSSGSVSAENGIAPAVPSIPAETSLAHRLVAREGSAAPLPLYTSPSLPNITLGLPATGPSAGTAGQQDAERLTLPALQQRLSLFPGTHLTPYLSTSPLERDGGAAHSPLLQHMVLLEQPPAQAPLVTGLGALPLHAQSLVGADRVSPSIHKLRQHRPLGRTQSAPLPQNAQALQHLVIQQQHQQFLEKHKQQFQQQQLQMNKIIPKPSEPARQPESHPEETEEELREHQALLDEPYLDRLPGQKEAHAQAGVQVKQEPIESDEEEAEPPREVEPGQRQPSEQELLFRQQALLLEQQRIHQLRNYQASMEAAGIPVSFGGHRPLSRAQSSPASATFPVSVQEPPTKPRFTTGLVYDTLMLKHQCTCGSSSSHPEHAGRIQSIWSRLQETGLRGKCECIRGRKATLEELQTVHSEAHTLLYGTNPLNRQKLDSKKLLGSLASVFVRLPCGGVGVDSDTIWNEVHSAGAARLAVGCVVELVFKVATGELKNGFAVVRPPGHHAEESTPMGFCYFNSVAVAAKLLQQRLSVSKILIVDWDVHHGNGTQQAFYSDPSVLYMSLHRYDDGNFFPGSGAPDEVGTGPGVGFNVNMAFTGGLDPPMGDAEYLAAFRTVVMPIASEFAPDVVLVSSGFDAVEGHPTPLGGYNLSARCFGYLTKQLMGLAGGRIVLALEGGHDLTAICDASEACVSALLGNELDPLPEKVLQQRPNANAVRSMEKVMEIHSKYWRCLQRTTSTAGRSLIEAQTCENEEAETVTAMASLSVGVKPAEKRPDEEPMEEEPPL
- Method description: Inhibition of recombinant human HDAC4 using Boc-Lys (trifluoroacetyl)-AMC as substrate ay 35 uM preincubated for 1 hr followed by substrate addition and measured after 1 hr by micro plate reader analysis
Calls of active or inactive are those of the source. No cut-off for these calls is given here.
Recorded endpoint: inhibition

{"Compound structure": "Cc1cccc(NC(=O)COc2ccc3cc(/C=C4/SC(=O)NC4=O)ccc3c2)n1", "Test system": "Histone deacetylase 4 (Homo sapiens, UniProt P56524)", "Recorded endpoint": "inhibition", "Reported measurement": "Active"}
{"Compound structure": "O=C(COc1ccc2cc(/C=C3/SC(=O)NC3=O)ccc2c1)Nc1ccccc1", "Test system": "Histone deacetylase 4 (Homo sapiens, UniProt P56524)", "Recorded endpoint": "inhibition", "Reported measurement": "Active"}
{"Compound structure": "CCOc1ccc2nc(NC(=O)COc3ccc4cc(/C=C5/SC(=O)NC5=O)ccc4c3)sc2c1", "Test system": "Histone deacetylase 4 (Homo sapiens, UniProt P56524)", "Recorded endpoint": "inhibition", "Reported measurement": "Active"}
{"Compound structure": "O=C(COc1ccc2cc(/C=C3/SC(=O)NC3=O)ccc2c1)Nc1cccc(F)n1", "Test system": "Histone deacetylase 4 (Homo sapiens, UniProt P56524)", "Recorded endpoint": "inhibition", "Reported measurement": "Active"}
{"Compound structure": "O=C(COc1ccc2cc(/C=C3/SC(=O)NC3=O)ccc2c1)Nc1ccccn1", "Test system": "Histone deacetylase 4 (Homo sapiens, UniProt P56524)", "Recorded endpoint": "inhibition", "Reported measurement": "Active"}
{"Compound structure": "O=C(COc1ccc2cc(/C=C3/SC(=O)NC3=O)ccc2c1)Nc1ccccc1Oc1ccccc1", "Test system": "Histone deacetylase 4 (Homo sapiens, UniProt P56524)", "Recorded endpoint": "inhibition", "Reported measurement": "Active"}
{"Compound structure": "COc1ccc(NC(=O)COc2ccc3cc(/C=C4/SC(=O)NC4=O)ccc3c2)cc1", "Test system": "Histone deacetylase 4 (Homo sapiens, UniProt P56524)", "Recorded endpoint": "inhibition", "Reported measurement": "Active"}
{"Compound structure": "O=C(COc1ccc2cc(/C=C3/SC(=O)NC3=O)ccc2c1)Nc1nc2ccccc2s1", "Test system": "Histone deacetylase 4 (Homo sapiens, UniProt P56524)", "Recorded endpoint": "inhibition", "Reported measurement": "Active"}

Input line: What inhibition value was documented for this compound, Cc1cc(NC(=O)COc2ccc3cc(/C=C4/SC(=O)NC4=O)ccc3c2)no1 ?
Output line: Active

###

I'd be grateful if you could share measured IC50 for these entries.
- Test system: Histone deacetylase 8 (Homo sapiens, UniProt Q9BY41)
- Sequence (Q9BY41 whole entry): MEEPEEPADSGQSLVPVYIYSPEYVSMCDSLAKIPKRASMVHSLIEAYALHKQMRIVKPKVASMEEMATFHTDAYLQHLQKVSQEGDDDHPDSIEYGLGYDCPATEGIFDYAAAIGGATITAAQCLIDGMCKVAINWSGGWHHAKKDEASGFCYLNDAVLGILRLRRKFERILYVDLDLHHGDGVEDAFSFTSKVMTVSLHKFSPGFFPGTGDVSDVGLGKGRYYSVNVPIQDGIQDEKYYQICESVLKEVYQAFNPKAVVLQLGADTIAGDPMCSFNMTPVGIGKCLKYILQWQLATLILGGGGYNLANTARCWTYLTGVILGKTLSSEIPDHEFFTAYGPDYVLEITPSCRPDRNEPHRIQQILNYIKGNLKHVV
- Method description: Inhibition of recombinant human HDAC8 using Boc-Lys (trifluoroacetyl)-AMC as substrate preincubated for 1 hr followed by substrate addition and measured after 1 hr by micro plate reader analysis

{"Compound structure": "O=C(COc1ccc2cc(/C=C3/SC(=O)NC3=O)ccc2c1)Nc1ccc(F)cc1F", "IC50": "> 50 µM"}

Provide reported IC50 for each item, in the same order as listed.
1. O=C(COc1ccc2cc(/C=C3/SC(=O)NC3=O)ccc2c1)Nc1ccc(Cl)c(Cl)c1
2. O=C(COc1ccc2cc(/C=C3/SC(=O)NC3=O)ccc2c1)Nc1ccccc1Oc1ccccc1

Output line:
["> 50 µM", "> 50 µM"]

###

- Test system: Histone deacetylase 8 (Homo sapiens, UniProt Q9BY41)
- Method description: Inhibition of recombinant human HDAC8 using Boc-Lys (trifluoroacetyl)-AMC as substrate preincubated for 1 hr followed by substrate addition and measured after 1 hr by micro plate reader analysis
So I've got a bunch of molecules here, and I need their pIC50 values.
Numbers only, as −log10 of the molar value.

{"Compound structure": "O=C(COc1ccc2cc(/C=C3/SC(=O)NC3=O)ccc2c1)Nc1ccc(Br)cc1", "Recorded endpoint": "pIC50", "Reported measurement": 4.80}

// below: pIC50 requested for another molecule
Input line: Requested field: pIC50. Item: O=C(COc1ccc2cc(/C=C3/SC(=O)NC3=O)ccc2c1)Nc1ccc([N+](=O)[O-])cc1
Output line: 5.40
